Experimental Target: DRB5*0101 (Homo sapiens, UniProt P01903+Q30154)
Construct: Epstein-Barr virus (EBV) transformed homozygous cell lines were used as sources of human HLA Class II molecules; endogenous in cells; host or cells: GM3107 (EBV-transformed homozygous B cell line)
Procedure Details: Class II peptide-binding assay DRB5*0101 (DR2w2a)
Entries and their IC50
Property Label: IC50 (nM)

Compound Structure String	Experimental Target	Cmp	Quantitative Result
CC[C@H](C)[C@H](NC(=O)[C@H](CO)NC(=O)[C@H](CCC(=O)O)NC(=O)[C@H](CC(C)C)NC(=O)[C@H](C)NC(=O)[C@@H](N)CC(=O)O)C(=O)N[C@@H](CCSC)C(=O)N[C@H](C(=O)N[C@H](C(=O)N[C@@H](CCCCN)C(=O)N[C@@H](CO)C(=O)N[C@H](C(=O)N[C@@H](CO)C(=O)N[C@@H](Cc1ccccc1)C(=O)N[C@@H](CCCNC(=N)N)C(=O)O)C(C)C)[C@@H](C)O)[C@@H](C)O	DRB5*0101 (Homo sapiens, UniProt P01903+Q30154)	>	20000
CC[C@H](C)[C@H](NC(=O)[C@@H](NC(=O)[C@H](CCCCN)NC(=O)[C@H](CCC(=O)O)NC(=O)[C@H](CC(C)C)NC(=O)[C@H](CC(C)C)NC(=O)[C@@H]1CCCN1C(=O)[C@H](CC(C)C)NC(=O)[C@@H](N)CC(C)C)C(C)C)C(=O)NCC(=O)N[C@@H](C)C(=O)NCC(=O)N[C@@H](CCCCN)C(=O)N1CCC[C@H]1C(=O)N[C@@H](CC(C)C)C(=O)O	DRB5*0101 (Homo sapiens, UniProt P01903+Q30154)	=	690
CC(C)C[C@H](NC(=O)[C@H](Cc1ccccc1)NC(=O)[C@H](CC(N)=O)NC(=O)[C@H](CO)NC(=O)[C@H](Cc1ccc(O)cc1)NC(=O)[C@@H](NC(=O)[C@H](CCCNC(=N)N)NC(=O)[C@H](Cc1ccccc1)NC(=O)[C@H](C)NC(=O)[C@H](CCCCN)NC(=O)[C@H](CCCNC(=N)N)NC(=O)[C@H](Cc1ccccc1)NC(=O)[C@@H](NC(=O)[C@@H](N)CC(=O)O)[C@@H](C)O)C(C)C)C(=O)N[C@@H](CCCNC(=N)N)C(=O)O	DRB5*0101 (Homo sapiens, UniProt P01903+Q30154)	=	80

* * *

Parameter: IC50. Scope: all listed entries.
Experimental Target: DRB3*0101 (Homo sapiens, UniProt P01903+P79483)
Construct: expressed in transfected cells; host or cells: transfected fibroblasts TR81.19
Procedure Details: Class II peptide-binding assay DRB3*0101 (DR52a)
Ends that are not written are not given here.

Primary Sequence	IC50
YSGPLKAEIAQRLEDV	1.33 µM
FNNFTVSFWLRVPKVSASHLEQY	2.82 µM
YTLLQAAPALDKLKLTGDEATGANI	3.85 µM
YKTIAYDEEARR	> 20 µM
DIEKKIAKMEKASSVFNVVNS	> 20 µM
